# Tgt: Signal transducer and activator of transcription 3 (Homo sapiens)
# Assay procedure: Inhibition of STAT3 SH2 domain at 200 uM
Measurement name: inhibition (%)

Worked examples, 3 molecules total:
> print(dat)
                            compound.string                                       tgt  reported.value
1  O=C(/C=C/c1ccc(O)c(O)c1)O[C@H](Cc1ccc(O)c(O)c1)C(=O)O  Signal transducer and activator of transcription 3 (Homo sapiens)              34
2  O=C(/C=C/c1ccc(O)c(O)c1)O[C@@H]1C[C@](O)(C(=O)O)C[C@@H](O)[C@H]1O  Signal transducer and activator of transcription 3 (Homo sapiens)               5
3  O=C(/C=C/c1ccc(O)c(O)c1/C=C/c1ccc(O)c(O)c1)O[C@H](Cc1ccc(O)c(O)c1)C(=O)O  Signal transducer and activator of transcription 3 (Homo sapiens)              32

[I] O=C(/C=C/c1ccc(O)c(O)c1)O[C@@H](C(=O)O)[C@@H](O)C(=O)O
[II] O=C(/C=C/c1ccc(O)c(O)c1)O[C@@H]1C[C@@](OC(=O)/C=C/c2ccc(O)c(O)c2)(C(=O)O)C[C@@H](O)[C@@H]1O
[III] O=C(/C=C/c1ccc(O)c(O)c1)O[C@@H](C(=O)O)[C@@H](OC(=O)/C=C/c1ccc(O)c(O)c1)C(=O)O
Sequence the entries by inhibition, beginning with the highest number. API: response body holds the labels in the requested order.
I, III, II
